Source listed as ChEMBL document CHEMBL5724696.

- Test system: U2OS
- Measurement protocol: Here: values are normalized to the positive (DMSO; basel flux = defined as 100% suppression) and negative (250nM Torin1; mTOR inhibitor; maximal inducer of autophagy defined as 0% suppression) control compounds and represented as % of ER-phagy suppression. […] The impact of autophagy induction on cells is complex and depends on the affected target. […] Of note, treatment concentrations may be sub-optimal for specific compounds, leading to false negative annotations.
- Assay type: functional, Homo sapiens
- Measurement context: Compound Concentration 1 uM, Timepoint 60 hours, Culturing Media DMEM, 1 % Penicillin/Streptomycin, 10% Fetal bovin serum Add-On: blasticidin, Screening Media Control DMEM, 10% Fetal bovin serum Add-On: 1 µg/ml Doxycyclin, Screening Media Samples DMEM, 10% Fetal bovin serum Add-On: 1 µg/ml Doxycyclin 250nM Torin1
Measured attribute: ER-phagy suppression (%)
Reply numerically in %, unit not repeated.

Some compounds with recorded ER-phagy suppression:
>>> number("CC(=O)Nc1ccc2ccn(-c3cc(NC4CC4)n4ncc(C#N)c4n3)c2c1")
75.9257
>>> number("CCCCN(Cc1ccccc1)C(=O)c1ccc(S(=O)(=O)Nc2ccccc2)cc1")
-26.4705
>>> number("Cc1c(C(=O)Nc2ccc(Oc3ccnc4[nH]cc(-c5ccccc5)c34)c(F)c2)c(=O)n(-c2ccc(F)cc2)n1C")
-1.46
>>> number("COc1cc(Nc2nc(C)cc(-c3cnn4nc(OC)ccc34)n2)cc(C(F)(F)F)c1")
-1.233

**Q:** I'd like to know its ER-phagy suppression. The compound in question is C[C@@H]1CN(CC(=O)Nc2ccc3c(c2)Cc2cccc(-c4cc(=O)cc(N5CCOCC5)o4)c2S3)C[C@H](C)O1
**A:** 35.1087

**Q:** Also check Cc1ccc(-c2ccc3c(ccc4sc5c(c43)NC[C@@H](C)NC5=O)n2)cn1
**A:** 5.525

**Q:** Also check Cn1cc(C2=C(c3cn(C4CCN(Cc5ccccn5)CC4)c4ccccc34)C(=O)NC2=O)c2ccccc21 [ENZASTAURIN]
**A:** 9.495

**Q:** Also check NC(=O)c1ccc(N(C(N)=O)c2c(F)cccc2F)nc1-c1ccc(F)cc1F [VX-702]
**A:** 30.7144

**Q:** Also check Cn1ccc(Cn2cnc(-c3ccc(F)cc3)c2-c2ccnc3[nH]ccc23)n1
**A:** 8.035

---

- Test system: U2OS
- Measurement protocol: Here: values are normalized to the positive (DMSO; basel flux = defined as 100% suppression) and negative (250nM Torin1; mTOR inhibitor; maximal inducer of autophagy defined as 0% suppression) control compounds and represented as % of ER-phagy suppression. […] The impact of autophagy induction on cells is complex and depends on the affected target. […] Of note, treatment concentrations may be sub-optimal for specific compounds, leading to false negative annotations.
- Format: functional, Homo sapiens
- Measurement context: Compound Concentration 1 uM, Timepoint 60 hours, Culturing Media DMEM, 1 % Penicillin/Streptomycin, 10% Fetal bovin serum Add-On: blasticidin, Screening Media Control DMEM, 10% Fetal bovin serum Add-On: 1 µg/ml Doxycyclin, Screening Media Samples DMEM, 10% Fetal bovin serum Add-On: 1 µg/ml Doxycyclin 250nM Torin1
Measured attribute: ER-phagy suppression (%)
Reply numerically in %, unit not repeated.

>>> number("O=C(O)CSc1ncnc2sc(-c3cc4ccccc4s3)cc12")
-10.482

**Q:** I'd like to know its ER-phagy suppression. The compound in question is CN(C)CCCn1cc(C2=C(c3c[nH]c4ccccc34)C(=O)NC2=O)c2ccccc21
**A:** 104.135

**Q:** Also check O=c1cc(-c2cccc3c2Sc2ccccc2S3)oc(N2CCOCC2)c1
**A:** 57.1444

**Q:** Also check C[C@@H]1CN(c2cc(-c3n[nH]c4ccc(OC5(C)CC5)cc34)ncn2)C[C@H](C)O1
**A:** -15.9794

**Q:** Also check Cc1cnc(-c2cnc(NCCNc3ccc(C#N)cn3)nc2-c2ccc(Cl)cc2Cl)[nH]1
**A:** 26.8731

**Q:** Also check CN1C(=O)[C@@H](N2CCc3cn(Cc4ccccc4)nc3C2=O)COc2ccccc21
**A:** -24.8138

**Q:** Also check CN(C)C1CC(n2cnc(-c3ccc(F)cc3)c2-c2ccnc3[nH]ccc23)C1 (stereo not drawn)
**A:** -15.1332

**Q:** Also check CCn1c(=O)c(-c2ccc(Cl)cc2Cl)cc2cnc(Nc3ccc(N4CCNCC4)c(F)c3)nc21
**A:** 76.8114

**Q:** Also check Cc1cc(Nc2nccc(C)n2)cc(-c2cnc([C@@]3(O)CC[C@H](C(=O)O)C(C)(C)C3)s2)c1
**A:** -21.2275

**Q:** Also check NC(=O)c1ccc2[nH]c(-c3ccc(Oc4ccc(Cl)cc4)cc3)nc2c1
**A:** -19.7873

---

Recorded autophagy induction values for a group of compounds are listed next.
- System: TERT-RPE1
- Measurement protocol: Here: values are normalized to the negative (DMSO; defined as 0% autophagy induction) and positive (250nM Torin1; mTOR inhibitor; defined as maximal inducer of autophagy = 100%) control compounds and represented as % of autophagy induction. […] The impact of autophagy induction on cells is complex and depends on the affected target. As such, the magnitude of a phenotype may not be equally mirrored in the %-value of autophagy induction and vice versa. The dynamics of the induction may indicate the mode of activation: e.g. activation via phosphorylation or a signaling cascade may occur fast, while activation via transcription factors may take considerably longer. […] Of note, treatment concentrations may be sub-optimal for specific compounds, leading to false negative annotations.
- Type: functional, Homo sapiens
- Measurement context: Compound Concentration 10 uM, Timepoint 12 hours, Culturing Media DMEM/F12 (1:1), 1 % Penicillin/Streptomycin, 10% Fetal bovin serum Add-On: No, Screening Media Control DMEM/F12 (1:1), Screening Media Samples DMEM/F12 (1:1)
Reply numerically in %, unit not repeated.

>>> number("CN(C)S(=O)(=O)c1ccc(NC(=S)N2CCC(C(O)(c3ccccc3)c3ccccc3)CC2)cc1")
-4.6942
>>> number("C[C@]1(C(=O)N(CCCC(=O)O)Cc2cccc(Cl)c2)CCN1C(=O)c1csc2ccccc12 [GLPG-0974]")
-6.234
>>> number("COc1ccnc(N2CCC3(CCCN(Cc4c[nH]c5ccccc45)C3=O)CC2)n1")
-6.8833
>>> number("Cc1csc(NC(=O)c2cc(F)cc(Oc3cncnc3)c2)n1")
-2.429
>>> number("C/C(=N\\NC(=O)[C@@H]1C(=O)NC[C@H]1c1ccccc1)c1cccc(Br)c1")
-5.576

**Q:** I'd like to know its autophagy induction. The compound in question is O=C(Nc1ccc(Cl)cc1)Nc1cccc(-c2cccc(N3CCCC3)n2)c1
**A:** -0.5349

**Q:** Also check CC(C)NC(=O)c1ccc(C#Cc2ccncc2)cn1
**A:** 1.565

**Q:** Also check O=C(O)C1CN(Cc2ccc(OCc3ccc(Cl)c(Cl)c3)cc2)C1
**A:** -3.6803

**Q:** Also check CN(C(=O)Cc1ccc(Cl)c(Cl)c1)C(CN1CCCC1)c1cccc(OCC(=O)O)c1.Cl (centres undefined)
**A:** -5.196

**Q:** Also check Cc1c(C2=CCN(C(=O)N(C)C(C)C)CC2)nnn1-c1cccnc1F
**A:** -1.3221

**Q:** Also check CNc1nc(NCc2ccc(NS(C)(=O)=O)cc2Cl)cc(-c2ccccn2)n1
**A:** 14.7912

**Q:** Also check COC1CCN(c2cccc(-c3cc(NC(C)=O)nc(-n4nc(C)cc4C)n3)n2)CC1
**A:** 3.426

**Q:** Also check CC(C)C[C@H](NC(=O)N1CCCCCC1)C(=O)N[C@H](Cc1cn(C)c2ccccc12)C(=O)N[C@H](Cc1ccccn1)C(=O)O
**A:** -4.458

**Q:** Also check Cc1cc(C)cc(C(=O)N(C)[C@H](Cc2ccc(-c3ccccc3)cc2)C(=O)N[C@@H](Cc2c[nH]c3ccccc23)C(=O)O)c1
**A:** -5.809

**Q:** Also check COc1ccc(S(=O)(=O)c2cc(OC)ccc2S(=O)(=O)c2ccc([C@H](C)NS(C)(=O)=O)cc2)cc1
**A:** -5.338

**Q:** Also check COc1ccc(C2(O)OC(=O)C(c3ccc4c(c3)OCO4)=C2Cc2cc(OC)c(OC)c(OC)c2)cc1 (centres undefined) [PD-156707]
**A:** -8.81

**Q:** Also check CCc1cc(C(C)=O)c(O)cc1OCCCCCC(C)(C)c1nn[nH]n1 [LY-255283]
**A:** -6.621

**Q:** Also check CS(=O)(=O)NC[C@H]1CC[C@H](Nc2nc3c(s2)CCSc2ccccc2-3)CC1
**A:** -3.228

**Q:** Also check Cc1c(P(=S)(c2ccccc2)c2ccccc2)n2ccccc2[n+]1C/C=C/c1ccccc1.[Br-]
**A:** 24.7841
